# Test target: FlgE (flagellar hook protein) (Treponema denticola, UniProt Q9RQB6)
# Sequence (Q9RQB6 11-454): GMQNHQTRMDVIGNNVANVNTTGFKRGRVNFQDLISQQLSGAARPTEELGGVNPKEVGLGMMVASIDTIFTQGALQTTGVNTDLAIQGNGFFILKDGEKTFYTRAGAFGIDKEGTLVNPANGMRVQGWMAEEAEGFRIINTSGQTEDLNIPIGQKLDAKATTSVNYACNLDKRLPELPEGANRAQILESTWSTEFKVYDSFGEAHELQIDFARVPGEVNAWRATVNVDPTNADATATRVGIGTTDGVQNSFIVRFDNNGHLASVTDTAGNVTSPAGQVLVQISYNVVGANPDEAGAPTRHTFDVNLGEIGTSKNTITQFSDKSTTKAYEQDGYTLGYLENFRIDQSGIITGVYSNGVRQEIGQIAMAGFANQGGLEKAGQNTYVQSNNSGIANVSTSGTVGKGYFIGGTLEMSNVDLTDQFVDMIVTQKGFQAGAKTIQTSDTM
# Test method notes: ELISA of Lal crosslinking between purified FlgE subunits, dose-response
# Assay type: biochemical
Observed property: pIC50
// pIC50: -log10(molar conc.)

pIC50 for Oc1c(Cl)cc(Cl)c(Cl)c1Cc1c(O)c(Cl)cc(Cl)c1Cl [hexachlorophene] is 4.32
